System: SEM cells
Assay: cell viability relative to DMSO control; higher = less cytotoxic
Details: RPMI 5 mM glucose + 10% FBS; 48 h; 0.0211 µM
Overview of reported cell viability across a group of compounds:
Express the result in % but write the number alone.

{"Compound": "CC(C)(C)NC(=O)Nc1cccc(Nc2ncc(F)c(NC(C)(C)CO)n2)c1", "Measured Value": 108}

Challenge: Given the compound COc1ccc([S+](=O)([O-])N(C(C)=O)c2ccccc2/C=C/c2cc[n+]([O-])cc2)cc1 , what is its reported cell viability?
Response given: 126

Challenge: // same read-out, input: C[S+](=O)([O-])Nc1ccc([N+](=O)[O-])cc1Oc1ccccc1
Response given: 90.5

Challenge: Would you kindly repeat that for CCN1CCN(c2ccc(Nc3cc(N(C)C(=O)Nc4c(Cl)c(OC)cc(OC)c4Cl)ncn3)cc2)CC1 ?
Response given: 102

Origin of measurements: the supplement of paper PMC11451515
